Target: T1, b-PD-1 monomer (human PD-1) (human, UniProt Q15116 25-167, limits assumed, biotinylated (b-PD-1; detected with streptavidin), site not stated)
T1 construct: The antigen used for the avid KD is not described separately; also called antigen
T1 sequence (Q15116 25-167 limits assumed): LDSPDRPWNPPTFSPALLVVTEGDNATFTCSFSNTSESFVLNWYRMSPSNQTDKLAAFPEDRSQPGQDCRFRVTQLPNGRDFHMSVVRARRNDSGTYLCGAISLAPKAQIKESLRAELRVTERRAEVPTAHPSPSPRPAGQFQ
Assay: MSD solution equilibrium titration, monovalent KD
metric: Kd (nM)
Entry rule: numbers only, all in nM.

Prompt line: Could you tell me which Kd is on file for xd-16 C, IgG1 format expressed in yeast (antibody, V domains shown, Tested as IgG1 expressed in yeast; also called Antibody C) VH: QVQLVQSGAEVKKPGSSVKVSCKASGGTFSSTAISWVRQAPGQGLEWMGGIWPSFGTASYAQKFRGRVTITADESTSTAYMELSSLRSEDTAVYYCARAEYSSTGTFDYWGQGTLVTVSS VL: DIQMTQSPSSVSASVGDRVTITCRASQGISSWLAWYQQKPGKAPKLLISAASSLQSGVPSRFSGSGSGTDFTLTISSLQPEDFATYYCQQANHLPFTFGGGTKVEIK ?
Response line: 0.05

Prompt line: Could you tell me which Kd is on file for xd-16 D, IgG1 format expressed in yeast (antibody, V domains shown, Tested as IgG1 expressed in yeast; also called Antibody D) VH: QVQLVQSGAEVKKPGSSVKVSCKASGGTFSSTAISWVRQAPGQGLEWMGGIWPSFDTANYAQKFRGRVTITADESTSTAYMELSSLRSEDTAVYYCARAEYSSTGTFDYWGQGTLVTVSS VL: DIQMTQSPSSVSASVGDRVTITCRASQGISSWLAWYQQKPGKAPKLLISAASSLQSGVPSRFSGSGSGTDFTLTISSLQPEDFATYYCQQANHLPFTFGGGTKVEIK ?
Response line: 0.093

Prompt line: Could you tell me which Kd is on file for xd-16 B, IgG1 format expressed in yeast (antibody, V domains shown, Tested as IgG1 expressed in yeast; also called Antibody B) VH: QVQLVQSGAEVKKPGSSVKVSCKASGGTFSSTAISWVRQAPGQGLEWMGGIWPSFGTASYAQKFQGRVTITADESTSTAYMELSSLRSEDTAVYYCARAEYSSTGIFDYWGQGTLVTVSS VL: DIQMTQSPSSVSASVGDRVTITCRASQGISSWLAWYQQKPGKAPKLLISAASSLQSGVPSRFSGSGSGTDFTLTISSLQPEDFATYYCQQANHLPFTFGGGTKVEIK ?
Response line: 0.045

Prompt line: Could you tell me which Kd is on file for xd-16 E, IgG1 format expressed in yeast (antibody, V domains shown, Tested as IgG1 expressed in yeast; also called Antibody E) VH: QVQLVQSGAEVKKPGSSVKVSCKASGGTFSSTAISWVRQAPGQGLEWMGGIWPSFGTANYARKFQGRVTITADESTSTAYMELSSLRSEDTAVYYCARAEYSSTGIFDYWGQGTLVTVSS VL: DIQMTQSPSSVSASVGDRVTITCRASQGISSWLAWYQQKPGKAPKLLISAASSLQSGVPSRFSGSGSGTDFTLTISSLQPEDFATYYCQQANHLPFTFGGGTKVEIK ?
Response line: 0.15
